- Experimental System: human ether-à-go-go-related gene (hERG) potassium channel (human, UniProt Q12809);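 also: peak tail current of the secondary pulse compared with the same well before compound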
- Sequence (Q12809 whole entry, looked up): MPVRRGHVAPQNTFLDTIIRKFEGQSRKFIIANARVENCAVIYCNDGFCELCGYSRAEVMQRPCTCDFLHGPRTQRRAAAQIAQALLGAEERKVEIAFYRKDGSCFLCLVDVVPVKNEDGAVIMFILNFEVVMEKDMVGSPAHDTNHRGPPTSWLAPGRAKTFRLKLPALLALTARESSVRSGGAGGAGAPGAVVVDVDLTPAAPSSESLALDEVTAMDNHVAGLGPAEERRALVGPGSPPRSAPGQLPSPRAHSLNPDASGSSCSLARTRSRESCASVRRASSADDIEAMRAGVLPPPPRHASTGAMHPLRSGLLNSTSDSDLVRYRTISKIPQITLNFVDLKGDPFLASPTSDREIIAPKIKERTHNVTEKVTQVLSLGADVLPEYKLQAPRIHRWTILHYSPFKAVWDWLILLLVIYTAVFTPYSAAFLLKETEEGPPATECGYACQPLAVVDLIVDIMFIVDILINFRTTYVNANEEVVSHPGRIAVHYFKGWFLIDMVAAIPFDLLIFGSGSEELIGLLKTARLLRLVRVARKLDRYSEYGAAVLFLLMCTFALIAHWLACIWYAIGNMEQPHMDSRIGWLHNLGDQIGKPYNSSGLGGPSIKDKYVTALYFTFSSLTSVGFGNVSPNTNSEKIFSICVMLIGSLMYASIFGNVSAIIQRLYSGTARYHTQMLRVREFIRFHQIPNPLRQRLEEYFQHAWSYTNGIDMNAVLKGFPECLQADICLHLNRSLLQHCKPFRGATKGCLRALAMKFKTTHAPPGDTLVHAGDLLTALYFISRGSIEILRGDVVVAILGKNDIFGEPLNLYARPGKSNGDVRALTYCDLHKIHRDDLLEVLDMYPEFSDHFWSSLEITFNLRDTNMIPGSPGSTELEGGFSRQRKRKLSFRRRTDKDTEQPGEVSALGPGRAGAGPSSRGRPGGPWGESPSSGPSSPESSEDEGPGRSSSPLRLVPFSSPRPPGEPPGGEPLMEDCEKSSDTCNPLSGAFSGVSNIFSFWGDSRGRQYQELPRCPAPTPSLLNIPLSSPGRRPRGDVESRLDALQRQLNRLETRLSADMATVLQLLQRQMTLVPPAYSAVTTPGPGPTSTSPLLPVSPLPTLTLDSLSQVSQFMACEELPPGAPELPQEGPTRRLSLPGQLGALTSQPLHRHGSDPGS
- Test Details: primary screen, population patch clamp on CHO cells stably expressing hERG; higher = less effect of the substance
About 14,000 (4.5%) of roughly 310,000 compounds showed an effect of 50% or more. The effect is printed as a negative number. The sample holds strong results, similar compounds and a random draw of the others, so the mix is not that of the screen.
Endpoint: hERG current change (%, negative = inhibition) at 10uM (%)

{"columns": ["Compound", "Experimental System", "Unit Label", "Val"],
 "data": [
  ["Cc1nnc(SCC(=O)Nc2ccc([N+](=O)[O-])cc2)n1CC1CCCO1 (stereo not drawn)", "human ether-à-go-go-related gene (hERG) potassium channel (human, UniProt Q12809)", "%", -55.5],
  ["O=C(CSc1nnc(C2CC2)n1CC1CCCO1)Nc1cccc(Cl)c1 (stereo not drawn)", "human ether-à-go-go-related gene (hERG) potassium channel (human, UniProt Q12809)", "%", -56.1],
  ["Cc1ccc([N+](=O)[O-])cc1NC(=O)CSc1nnc(C)n1CC1CCCO1 (stereo not drawn)", "human ether-à-go-go-related gene (hERG) potassium channel (human, UniProt Q12809)", "%", -14.6],
  ["C=CCn1c(SCC(=O)Nc2cccc(S(=O)(=O)N(C)c3ccccc3)c2)nnc1C1CC1", "human ether-à-go-go-related gene (hERG) potassium channel (human, UniProt Q12809)", "%", -69.8],
  ["Cc1ccc(NC(=O)CSc2nnc(C3CC3)n2CC2CCCO2)cc1C (stereo not drawn)", "human ether-à-go-go-related gene (hERG) potassium channel (human, UniProt Q12809)", "%", -24],
  ["Cc1nnc(SCC(=O)Nc2cccc([N+](=O)[O-])c2)n1CC1CCCO1 (stereo not drawn)", "human ether-à-go-go-related gene (hERG) potassium channel (human, UniProt Q12809)", "%", -13],
  ["OCC[C@H]1C[C@H](O)[C@@H](O)[C@]2(CCc3ccccc3O2)O1", "human ether-à-go-go-related gene (hERG) potassium channel (human, UniProt Q12809)", "%", 6.41],
  ["CCc1ccc(NC(=O)CSc2nnc(C3CC3)n2CC2CCCO2)cc1 (stereo not drawn)", "human ether-à-go-go-related gene (hERG) potassium channel (human, UniProt Q12809)", "%", -22.4],
  ["O=C(c1cccs1)N1CCCC(c2nc3c(nnn3Cc3c(Cl)cccc3Cl)c(=O)[nH]2)C1 (stereo not drawn)", "human ether-à-go-go-related gene (hERG) potassium channel (human, UniProt Q12809)", "%", -46.9]
]}

----------
- Experimental System: human ether-à-go-go-related gene (hERG) potassium channel (human);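 also: peak tail current of the secondary pulse compared with the same well before compound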
- Test Details: primary screen, population patch clamp on CHO cells stably expressing hERG; higher = less effect of the substance
About 14,000 (4.5%) of roughly 310,000 compounds showed an effect of 50% or more. Effects have a minus sign here. What follows is part of a selection rich in strong results, with near analogues and random picks from the rest.
Endpoint: hERG current change (%, negative = inhibition) at 10uM (%)

{"columns": ["Compound", "Unit Label", "Val"],
 "data": [
  ["Cc1ccc2c(c1)N(C)/C(=C/c1cccc[n+]1C)S2.[I-]", "%", -47.5],
  ["CC[n+]1ccccc1/C=C1\\Sc2ccc(C)cc2N1C.[I-]", "%", -62.5],
  ["O=C(O)CCC(=O)N1N=C(c2ccc(Br)cc2)CC1c1ccc(Br)cc1 (stereo not shown)", "%", 20.6],
  ["COc1ccc(C)cc1NC(=O)NNC(=O)c1cc2ccccc2cc1O", "%", 12.1],
  ["CCOc1ccc2c(CC)cc(=O)oc2c1OCC", "%", -18.9],
  ["COc1cccc(CN(C)C(=O)c2cccnc2SC)c1OC", "%", 9.74],
  ["Cc1cccc(NC(=S)NCCN2CCOCC2)c1C", "%", 13.9],
  ["Cc1cccc(NC(=O)c2cc(-c3cc(Cl)ccc3O)n[nH]2)c1", "%", 18.2],
  ["CC[C@H](C)[C@H](NC(N)=O)C(=O)NCCc1ccc(OC)c(OC)c1", "%", 20.1],
  ["Cc1ccc2c(c1)N(C)/C(=C/c1cccc[n+]1CCO)S2.[I-]", "%", -9.09]
]}

----------
- Experimental System: human ether-à-go-go-related gene (hERG) potassium channel (human, UniProt Q12809);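 also: peak tail current of the secondary pulse compared with the same well before compound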
- Test Details: primary screen, population patch clamp on CHO cells stably expressing hERG; higher = less effect of the substance
The whole screen tested about 310,000 compounds, of which about 14,000 (4.5%) showed an effect of 50% or more. Effects have a minus sign here. For the sample, strong results were picked, then their nearest neighbours and some compounds at random.
Items are presented alongside their recorded hERG current change (%, negative = inhibition) at 10uM.
Endpoint: hERG current change (%, negative = inhibition) at 10uM (%)

{"columns": ["Compound", "Unit Label", "Val"],
 "data": [
  ["COCCCn1c(C23CC4CC(CC(C4)C2)C3)n[nH]c1=S", "%", -5.2],
  ["Cc1cc(Nc2ccccc2)c2c([N+](=O)[O-])cc(C)c(C)c2n1", "%", -9.29],
  ["O=C(COc1ccc(-n2ccnc2)cc1)Nc1cccc(F)c1", "%", -54.6],
  ["COC(=O)/C(=C/c1c[nH]c2ccccc12)NC(C)=O", "%", 6.31],
  ["CC(C)OC(=O)/C(=C/c1ccc2c(c1)c1ccccc1n2C)NC(=O)c1ccccc1", "%", -1.72],
  ["O=C(Oc1ccc(F)cc1)c1ccc2c(=O)n3c(nc2c1)CCC3", "%", -21.6],
  ["O=C(COc1ccc(/C=N/NC(=O)c2cc3ccccc3o2)cc1Cl)Nc1ccccc1", "%", 6.96],
  ["N#Cc1cccc(NC(=O)COc2ccc(-n3ccnc3)cc2)c1", "%", -67.5],
  ["COCCNC(=O)/C(C#N)=C/c1cccc(/C=C(\\C#N)C(=O)NCCOC)c1", "%", 0.707],
  ["N#Cc1ccc(OCC(=O)Nc2ccncc2)cc1", "%", 18.1],
  ["N#Cc1cccc(NC(=O)CCn2ccnc2)c1", "%", 2.87],
  ["CC1=C(C)CS(=O)N(S(=O)(=O)c2ccccc2)C1 (stereo not drawn)", "%", -16.3],
  ["COC(=O)Cn1cnc2c(C#N)c3n(c2c1=O)CCCCC3", "%", -8.01],
  ["Cc1ccc2nc(-c3ccc(-c4ccccn4)s3)cn2c1", "%", -1.76],
  ["COC(=O)CN(c1ccccc1)S(=O)(=O)c1ccccc1", "%", 4.04],
  ["Cc1ccc(S(=O)(=O)NC(CC(=O)N2CCC3(CC2)OCCO3)c2ccco2)cc1 (stereo not drawn)", "%", 3.51],
  ["Cc1ccccc1NC(=S)/C(=C(\\[O-])c1ccc(C)c([N+](=O)[O-])c1)[n+]1ccccc1", "%", -1.7],
  ["O=C(COc1ccc(-n2ccnc2)cc1)Nc1cccc(Cl)c1", "%", -38.9],
  ["COc1cc(OC)c(S(=O)(=O)NC(C)C)cc1S(=O)(=O)NC(C)C", "%", 2.64],
  ["CC1(C)Oc2ccc3ccc(=O)oc3c2C(/C=N/O)C1=O (stereo not drawn)", "%", 3.87],
  ["CCCCN(CC)C(=O)C1CCC(=O)N(c2ccc(OC)cc2)C1c1ccc(OC)c(OC)c1 (stereo not drawn)", "%", -10.2]
]}

----------
- Experimental System: human ether-à-go-go-related gene (hERG) potassium channel (human, UniProt Q12809);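 also: peak tail current of the secondary pulse compared with the same well before compound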
- Test Details: primary screen, population patch clamp on CHO cells stably expressing hERG; higher = less effect of the substance
Out of some 310,000 compounds screened, about 14,000 (4.5%) showed an effect of 50% or more. Effects have a minus sign here. This is one part of a sample in which strong results are shown more often than they occur.
Items are presented alongside their recorded hERG current change (%, negative = inhibition) at 10uM.
Endpoint: hERG current change (%, negative = inhibition) at 10uM (%)

{"columns": ["Compound", "Val"],
 "data": [
  ["O=C(CN(CC1CCCO1)C(=O)CNS(=O)(=O)c1ccc(F)cc1)NCc1ccccc1 (stereo not drawn)", 7.27],
  ["CC(=O)Nc1ccc(C(=O)NCCc2ccccc2)cc1", 12.9],
  ["CC(C)CN(C(=O)CCC(=O)OCc1ccc(Cl)cc1Cl)c1c(N)n(CC(C)C)c(=O)[nH]c1=O", -47.3],
  ["CS(=O)(=O)Nc1ccc(C(=O)NCCSCc2ccccc2)cc1", -45.1],
  ["CCOc1ccccc1C(=O)N(CN1CCCC1=O)c1cccc(Cl)c1", -3.65],
  ["CS(=O)(=O)Nc1ccc(C(=O)Nc2ccccc2C(=O)NCc2ccco2)cc1", -69.2],
  ["NS(=O)(=O)c1cc(C(=O)OCC(=O)Nc2ccccc2[N+](=O)[O-])ccc1Cl", -6.13],
  ["CCC(=O)c1ccc(OCC(=O)OCC(=O)N2c3ccccc3NC(=O)C2(C)C)cc1", 2.82],
  ["CN(Cc1ccccc1)S(=O)(=O)c1ccc(NS(=O)(=O)Cc2ccccc2)cc1", 0.139]
]}

Data provenance: paper PMC4336329
